Read-out: Human Leukocyte Antigen - DR isotype (HLADR), HLA-DRA (gene 3122)
assay: BSK_CASM3C_HLADR: BioMAP Diversity Plus: CASM3C Assay for Human Leukocyte Antigen - DR isotype (HLADR) Biomarker Activity (AID 2283043);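 note: cell-surface HLA-DR protein level quantified by ELISA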
cond: primary human coronary artery smooth muscle cells; actives raise or lower the signal
Calls of active or inactive are those of the source. Rule for the calls: active = hit-call score of the fitted dose curve at least 0.9, where 1 is the maximum; inactive = score below 0.9.
Outcome codes: YES (active), NO (inactive)

compound	class-assignment
NCC1(Cc2noc(=O)[nH]2)CCCCC1	NO
CCOC(=O)C(C)(C)Oc1ccc(Cl)cc1	NO
C[Si]1(C)O[Si](C)(C)O[Si](C)(C)O[Si](C)(C)O1	NO
CN[C@H]1CC[C@@H](c2ccc(Cl)c(Cl)c2)c2ccc(S(N)(=O)=O)cc21	YES
CC1(C)NC(=O)NC1=O	NO
CC1=C(/C=C/C(C)=C/C=C/C(C)=C/CO)C(C)(C)CCC1	NO
FC(F)(F)C(F)(F)C(F)(F)C(F)(F)C(F)(F)C(F)(F)CCI	NO
C1CCC(SSC2CCCCC2)CC1	YES
CCCCC(CC)COC(=O)CC(C(=O)OCC(CC)CCCC)S(=O)(=O)O (stereo not drawn)	NO
COCCOCCOC	NO
CCCCCCCCCCC	NO
CCCCCCOCCO	NO
CN1CCN(Cc2cc(-c3ccc4[nH]c(=O)oc4c3)co2)[C@@H](c2ccc(F)cc2)C1	NO

###

target-entity: Glucocorticoid receptor (Homo sapiens)
assay: NVS_NR_hGR: NovaScreen (NVS) Nuclear Receptor Binding Assay for human Glucocorticoid Receptor (GR) (AID 2283363)
Records with an inconclusive call do not appear. Calls of active or inactive are those of the source. How the source made its calls: active means hit-call score of the fitted dose curve at least 0.9, where 1 is the maximum; inconclusive means response in the unintended direction; inactive means score below 0.9.
Outcome codes: true (1) (active), false (0) (inactive)

compound	class-assignment
CCOC(=O)CCC(=O)OCC	false (0)
O=C(N[C@@H](Cc1ccccc1)[C@@H](O)C(=O)N1C[C@@H](O)[C@@H](O)C1)c1cc2cc(Cl)ccc2[nH]1	false (0)
CCCCC(CC)COC(=O)CC(C(=O)OCC(CC)CCCC)S(=O)(=O)O (configuration not stated)	true (1)
COc1cc(-c2nc(NC(=O)c3cc4cc(C)cc(C)c4n3CC(=O)O)sc2CCC2CCCCC2)c(OC)cc1Cl	false (0)
Nc1ccc2c(c1)C(=O)c1ccccc1C2=O	false (0)
CCOC(=O)C(C)(C)Oc1ccc(Cl)cc1	false (0)
CN1CCN(Cc2cc(-c3ccc4[nH]c(=O)oc4c3)co2)[C@@H](c2ccc(F)cc2)C1	true (1)

###

assay: APR_HepG2_CellLoss_24hr: Apredica 24-hour HepG2 Assay for Cell Loss (AID 2282908)
cond: high-content imaging
Activity calls are given as the source filed them. The calls were made as follows: active = hit-call score of the fitted dose curve at least 0.9, where 1 is the maximum; inactive = score below 0.9.
Outcome codes: true (1) for active, false (0) for inactive

compound	class-assignment
Cc1nc(C)nc(N2C[C@@H](C)N(c3ccnc([C@@H](C)O)n3)[C@@H](C)C2)n1	false (0)
Cc1ccc(N(C)C)cc1	false (0)
c1cc(-c2ccncc2)ccn1	false (0)
COCCOCCOC	false (0)
CNC(=O)[C@H]1O[C@@H](n2cnc3c(NCc4cc(Cl)ccc4OCc4cc(C)no4)ncnc32)[C@H](O)[C@@H]1N	false (0)
C=CCOC(=O)c1ccccc1C(=O)OCC=C	false (0)
NCCO	false (0)
O=C(N[C@@H](Cc1ccccc1)[C@@H](O)C(=O)N1C[C@@H](O)[C@@H](O)C1)c1cc2cc(Cl)ccc2[nH]1	false (0)
CNCc1cc(F)ccc1Oc1ccc(Cl)c(Cl)c1	true (1)
CC1(C)CC(N=C=O)CC(C)(CN=C=O)C1 (configuration not stated)	false (0)
CCCCCCCCCCO	false (0)
COC(=O)c1ccc(O)cc1	false (0)
CC=Cc1ccc(O)c(OC)c1	false (0)
CC(=O)C(C)=CC1C(C)=CCCC1(C)C (configuration not stated)	false (0)
COc1ccc2c(c1)c(CC(=O)O)c(C)n2C(=O)c1ccc(Cl)cc1	false (0)
COc1ccc(S(=O)(=O)N2C(=O)[C@@](c3ccccc3OC)(N3C[C@H](O)C[C@H]3C(=O)N(C)C)c3cc(Cl)ccc32)c(OC)c1	true (1)
Cc1nc(-c2ccc3c(c2)CCN(CCC2CCC(NC(=O)/C=C/c4ccc(F)cc4)CC2)CC3)no1 (configuration not stated)	false (0)
COc1cccc2c1C(=O)c1c(O)c3c(c(O)c1C2=O)C[C@@](O)(C(=O)CO)C[C@@H]3O[C@H]1C[C@H](N)[C@H](O)[C@H](C)O1	false (0)
CCc1c(C(=O)NN2CCCCC2)nn(-c2ccc(Cl)cc2Cl)c1-c1ccc(Br)cc1	true (1)
CC1(C)NC(=O)NC1=O	false (0)
CCCCCCC(=O)OCC	false (0)
C[Si]1(C)O[Si](C)(C)O[Si](C)(C)O[Si](C)(C)O1	false (0)

###

target-entity: Nuclear receptor subfamily 1 group I member 2 (Homo sapiens)
assay: ATG_PXR_TRANS: Attagene TRANS-FACTORIAL HepG2 Assay for human Pregnane X Receptor (PXR) (AID 2283008)
Results filed as inconclusive are left out. The source made the active and inactive calls. Rule for the calls: active = hit-call score of the fitted dose curve at least 0.9, where 1 is the maximum; inconclusive = response in the unintended direction; inactive = score below 0.9.
Outcome codes: yes (active), no (inactive)

smiles-entry	class-assignment
NCC1(Cc2noc(=O)[nH]2)CCCCC1	no
O=C(OCCCCCOC(=O)c1ccccc1)c1ccccc1	no
CCCCCCC(=O)OCC	yes
CCCCCCCCCCCCCO	no
O=C(N[C@@H](Cc1ccccc1)[C@@H](O)C(=O)N1C[C@@H](O)[C@@H](O)C1)c1cc2cc(Cl)ccc2[nH]1	no
Cc1cccc(C)c1O	no
CCCCOC(=O)CCCCCCCCC(=O)OCCCC	no
CCCCN(CCCC)CCCC	no
Nc1ccc2c(c1)C(=O)c1ccccc1C2=O	no
Cc1cccc([N+](=O)[O-])c1C	yes
Cc1ccc(C(C)C)c(O)c1	no
CC(=O)OC/C=C(\C)CCC=C(C)C	no
CN1CCN(Cc2cc(-c3ccc4[nH]c(=O)oc4c3)co2)[C@@H](c2ccc(F)cc2)C1	no

###

Read-out: Alkaline Phosphatase, Placental (ALPP) gene, ALPP (gene 250)
assay: LTEA_HepaRG_ALPP: Life Technologies and Expression Analysis (LTEA) Assay for Alkaline Phosphatase, Placental (ALPP) gene using HepaRG (AID 2283468)
cond: mRNA level, 48 h; actives raise or lower the signal
Procedure: LTEA_HepaRG is a cell based, multiplexed-readout assay that uses HepaRG, a human liver cell line, with measurements taken at 48 hours after chemical dosing on a 96-well plate.LTEA_HepaRG_ALPP is one of 102 assay component(s) measured in the LTEA HepaRG cell culture assay. It is a marker of Cell proliferation, survival, death.Data from the assay component LTEA_HepaRG_ALPP was analyzed into 1 endpoint. […]
The source made the active and inactive calls. How the source made its calls: active means hit-call score of the fitted dose curve at least 0.9, where 1 is the maximum; inactive means score below 0.9.
Outcome codes: active, inactive

compound	class-assignment
Cc1ccc(Cl)cc1	inactive
C=CCc1ccc(O)c(OC)c1	inactive
COc1ccc(S(=O)(=O)N2C(=O)[C@@](c3ccccc3OC)(N3C[C@H](O)C[C@H]3C(=O)N(C)C)c3cc(Cl)ccc32)c(OC)c1	active
Cc1oc(-c2ccccc2)nc1CCOc1cccc2c1ccn2CCC(=O)O	active
Cc1cccc(C)c1O	inactive
Cc1ccc2ncccc2c1	inactive
CN1CCN(Cc2cc(-c3ccc4[nH]c(=O)oc4c3)co2)[C@@H](c2ccc(F)cc2)C1	active
CCCCN(CCCC)CCCC	inactive
CCc1c(C(=O)NN2CCCCC2)nn(-c2ccc(Cl)cc2Cl)c1-c1ccc(Br)cc1	active
CC(=O)OC/C=C(\C)CCC=C(C)C	inactive
CCOc1ccc2c(c1)C(C)=CC(C)(C)N2	inactive
Nc1ccc(S(=O)(=O)c2ccc(N)cc2)cc1	inactive
Nc1ccc2c(c1)C(=O)c1ccccc1C2=O	inactive
CC1=C(/C=C/C(C)=C/C=C/C(C)=C/CO)C(C)(C)CCC1	inactive
Nc1ccccc1N	inactive
Cc1ccccc1Cl	inactive
CCCCOC(=O)CCCCCCCCC(=O)OCCCC	inactive
Cc1ccc(C)c(C)c1	inactive
Oc1ccc2ccccc2c1N=Nc1ccccc1	inactive
CCCCCCCCCCCCCO	inactive
Cc1ccc(N(C)C)cc1	inactive
Cc1cccc([N+](=O)[O-])c1C	inactive
O=C(O)CCCCC(=O)O	inactive
COc1ccc2c(c1)c(CC(=O)O)c(C)n2C(=O)c1ccc(Cl)cc1	inactive
O=C(N[C@@H](Cc1ccccc1)[C@@H](O)C(=O)N1C[C@@H](O)[C@@H](O)C1)c1cc2cc(Cl)ccc2[nH]1	inactive
C[C@]12C=CC(=O)C=C1CC[C@@H]1[C@@H]2C(=O)C[C@@]2(C)[C@H]1CC[C@]2(O)C(=O)CO	inactive
OC[C@@H](O)[C@@H](O)[C@H](O)[C@H](O)CO	inactive
CNC(=O)[C@H]1O[C@@H](n2cnc3c(NCc4cc(Cl)ccc4OCc4cc(C)no4)ncnc32)[C@H](O)[C@@H]1N	inactive
CNCc1cc(F)ccc1Oc1ccc(Cl)c(Cl)c1	active
CC(=O)OCCOCCOCCOC(C)=O	inactive
CCOC(=O)CCC(=O)OCC	inactive
CCOC(=O)C(C)(C)Oc1ccc(Cl)cc1	inactive
Cc1cc(=O)[nH]c(=S)[nH]1	inactive
CCCCC(CC)COC(=O)CC(C(=O)OCC(CC)CCCC)S(=O)(=O)O (configuration not stated)	inactive
O=[N+]([O-])C(CO)(CO)CO	inactive
CCCCCCCCCCC	inactive
Cc1nc(C)nc(N2C[C@@H](C)N(c3ccnc([C@@H](C)O)n3)[C@@H](C)C2)n1	inactive
Clc1cc(Cl)c(Cl)cc1Cl	inactive
Cc1nc(-c2ccc3c(c2)CCN(CCC2CCC(NC(=O)/C=C/c4ccc(F)cc4)CC2)CC3)no1 (configuration not stated)	inactive
CC=Cc1ccc(O)c(OC)c1	inactive
COCCOC[C@H](CC1(C(=O)NC2CCC(C(=O)O)CC2)CCCC1)C(=O)Oc1ccc2c(c1)CCC2 (some centres not stated)	inactive
Oc1ccc2c(c1)OC[C@@H](N1CCC(O)(c3ccc(F)cc3)CC1)[C@H]2O	inactive
CCCCCCC(=O)OCC	inactive
c1cc(-c2ccncc2)ccn1	inactive
C1CCC(SSC2CCCCC2)CC1	inactive
CCCCCC(=O)O	inactive
CN[C@H]1CC[C@@H](c2ccc(Cl)c(Cl)c2)c2ccc(S(N)(=O)=O)cc21	active
Cc1cccc(Nc2cc(Cl)nc(SCC(=O)O)n2)c1C	inactive
CC1(C)CC(N=C=O)CC(C)(CN=C=O)C1 (configuration not stated)	inactive
FC(F)(F)C(F)(F)C(F)(F)C(F)(F)C(F)(F)C(F)(F)CCI	inactive
O=c1c(O)c(-c2ccc(O)c(O)c2)oc2cc(O)cc(O)c12	inactive
O=C(OCCCCCOC(=O)c1ccccc1)c1ccccc1	active
